- ASSAY_COMMENT: Pharmacokinetic analysis in mice
- Type: in vivo, mouse
- TEST_CONTEXT: male, BALB/c hairy, mouse, plasma, PO, 50 mg/kg single dose
REPORTED_PROPERTY: Tmax (h)

1) Cc1cc(/C=C/C#N)cc(C)c1Nc1ccnc(Nc2ccc(C#N)cc2)n1; 1.5

* * *

- ASSAY_COMMENT: Pharmacokinetic analysis in mice
- Type: in vivo, mouse
- TEST_CONTEXT: male, BALB/c hairy, mouse, plasma, IV, 2 mg/kg single dose
REPORTED_PROPERTY: half-life (h)

1) Cc1cc(/C=C/C#N)cc(C)c1Nc1ccnc(Nc2ccc(C#N)cc2)n1 [rilpivirine]; 1.3
